B1: IQUB (parent)
chain: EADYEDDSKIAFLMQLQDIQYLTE

Variants of: B1
run.description: protein stability index of a GFP-peptide fusion (GPS, HEK-293T) (PSI 1-6); higher = more stable;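 also: lentivirally expressed fusions sorted by FACS into six bins by GFP to DsRed ratio, PSI derived from sequencing read proportions per bin multiplied by bin number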
measurement.context: c terminus: a fixed tail appended
reported.endpoint: protein stability index

[
  {
    "variant.notation": "S8V",
    "reported.endpoint": "protein stability index",
    "reading": 2.6
  },
  {
    "variant.notation": "S8H",
    "reported.endpoint": "protein stability index",
    "reading": 3.44
  },
  {
    "variant.notation": "Q15P",
    "reported.endpoint": "protein stability index",
    "reading": 3.39
  },
  {
    "variant.notation": "E24N",
    "reported.endpoint": "protein stability index",
    "reading": 2.61
  },
  {
    "variant.notation": "E1Q",
    "reported.endpoint": "protein stability index",
    "reading": 2.76
  },
  {
    "variant.notation": "D6A",
    "reported.endpoint": "protein stability index",
    "reading": 2.21
  },
  {
    "variant.notation": "Y4H",
    "reported.endpoint": "protein stability index",
    "reading": 3.35
  },
  {
    "variant.notation": "E5M",
    "reported.endpoint": "protein stability index",
    "reading": 2.53
  },
  {
    "variant.notation": "I10V",
    "reported.endpoint": "protein stability index",
    "reading": 3.42
  },
  {
    "variant.notation": "L13S",
    "reported.endpoint": "protein stability index",
    "reading": 4.41
  },
  {
    "variant.notation": "L16A",
    "reported.endpoint": "protein stability index",
    "reading": 4.13
  },
  {
    "variant.notation": "E24H",
    "reported.endpoint": "protein stability index",
    "reading": 2.48
  },
  {
    "variant.notation": "T23S",
    "reported.endpoint": "protein stability index",
    "reading": 3.21
  },
  {
    "variant.notation": "D6T",
    "reported.endpoint": "protein stability index",
    "reading": 2.25
  },
  {
    "variant.notation": "Y21P",
    "reported.endpoint": "protein stability index",
    "reading": 3.77
  },
  {
    "variant.notation": "S8K",
    "reported.endpoint": "protein stability index",
    "reading": 3.34
  },
  {
    "variant.notation": "Q15V",
    "reported.endpoint": "protein stability index",
    "reading": 1.76
  },
  {
    "variant.notation": "A2Y",
    "reported.endpoint": "protein stability index",
    "reading": 2.08
  },
  {
    "variant.notation": "L22H",
    "reported.endpoint": "protein stability index",
    "reading": 4.07
  },
  {
    "variant.notation": "I10Q",
    "reported.endpoint": "protein stability index",
    "reading": 4.12
  },
  {
    "variant.notation": "M14Q",
    "reported.endpoint": "protein stability index",
    "reading": 4.23
  },
  {
    "variant.notation": "M14F",
    "reported.endpoint": "protein stability index",
    "reading": 2.46
  },
  {
    "variant.notation": "D7F",
    "reported.endpoint": "protein stability index",
    "reading": 1.17
  },
  {
    "variant.notation": "D3K",
    "reported.endpoint": "protein stability index",
    "reading": 2.58
  },
  {
    "variant.notation": "Y4K",
    "reported.endpoint": "protein stability index",
    "reading": 3.96
  },
  {
    "variant.notation": "Y4M",
    "reported.endpoint": "protein stability index",
    "reading": 3.07
  },
  {
    "variant.notation": "I19W",
    "reported.endpoint": "protein stability index",
    "reading": 2.64
  },
  {
    "variant.notation": "Q20H",
    "reported.endpoint": "protein stability index",
    "reading": 3.12
  },
  {
    "variant.notation": "D3A",
    "reported.endpoint": "protein stability index",
    "reading": 2.1
  },
  {
    "variant.notation": "T23M",
    "reported.endpoint": "protein stability index",
    "reading": 1.92
  },
  {
    "variant.notation": "L16F",
    "reported.endpoint": "protein stability index",
    "reading": 3.42
  },
  {
    "variant.notation": "M14E",
    "reported.endpoint": "protein stability index",
    "reading": 4.06
  },
  {
    "variant.notation": "E24Y",
    "reported.endpoint": "protein stability index",
    "reading": 2.36
  },
  {
    "variant.notation": "D6L",
    "reported.endpoint": "protein stability index",
    "reading": 1.53
  },
  {
    "variant.notation": "D18L",
    "reported.endpoint": "protein stability index",
    "reading": 1.69
  },
  {
    "variant.notation": "Q15H",
    "reported.endpoint": "protein stability index",
    "reading": 2.44
  },
  {
    "variant.notation": "I19F",
    "reported.endpoint": "protein stability index",
    "reading": 3.44
  },
  {
    "variant.notation": "Q20L",
    "reported.endpoint": "protein stability index",
    "reading": 1.69
  },
  {
    "variant.notation": "E24S",
    "reported.endpoint": "protein stability index",
    "reading": 2.71
  },
  {
    "variant.notation": "D18M",
    "reported.endpoint": "protein stability index",
    "reading": 1.83
  },
  {
    "variant.notation": "K9V",
    "reported.endpoint": "protein stability index",
    "reading": 2.3
  },
  {
    "variant.notation": "K9S",
    "reported.endpoint": "protein stability index",
    "reading": 3.06
  },
  {
    "variant.notation": "Q20Y",
    "reported.endpoint": "protein stability index",
    "reading": 1.62
  },
  {
    "variant.notation": "Y4V",
    "reported.endpoint": "protein stability index",
    "reading": 3.18
  },
  {
    "variant.notation": "A11P",
    "reported.endpoint": "protein stability index",
    "reading": 3.82
  },
  {
    "variant.notation": "E24T",
    "reported.endpoint": "protein stability index",
    "reading": 2.54
  },
  {
    "variant.notation": "M14L",
    "reported.endpoint": "protein stability index",
    "reading": 2.32
  },
  {
    "variant.notation": "I19K",
    "reported.endpoint": "protein stability index",
    "reading": 4.86
  },
  {
    "variant.notation": "E1A",
    "reported.endpoint": "protein stability index",
    "reading": 2.95
  },
  {
    "variant.notation": "D6N",
    "reported.endpoint": "protein stability index",
    "reading": 2.9
  },
  {
    "variant.notation": "E1D",
    "reported.endpoint": "protein stability index",
    "reading": 3.56
  },
  {
    "variant.notation": "I19M",
    "reported.endpoint": "protein stability index",
    "reading": 3.68
  },
  {
    "variant.notation": "T23F",
    "reported.endpoint": "protein stability index",
    "reading": 1.98
  },
  {
    "variant.notation": "A11R",
    "reported.endpoint": "protein stability index",
    "reading": 2.83
  },
  {
    "variant.notation": "D6S",
    "reported.endpoint": "protein stability index",
    "reading": 2.7
  },
  {
    "variant.notation": "Q15L",
    "reported.endpoint": "protein stability index",
    "reading": 2.04
  },
  {
    "variant.notation": "K9I",
    "reported.endpoint": "protein stability index",
    "reading": 1.83
  },
  {
    "variant.notation": "S8T",
    "reported.endpoint": "protein stability index",
    "reading": 3.07
  },
  {
    "variant.notation": "M14V",
    "reported.endpoint": "protein stability index",
    "reading": 2.7
  },
  {
    "variant.notation": "D3Q",
    "reported.endpoint": "protein stability index",
    "reading": 2.23
  },
  {
    "variant.notation": "D18H",
    "reported.endpoint": "protein stability index",
    "reading": 2.58
  },
  {
    "variant.notation": "F12L",
    "reported.endpoint": "protein stability index",
    "reading": 2.96
  },
  {
    "variant.notation": "Y21R",
    "reported.endpoint": "protein stability index",
    "reading": 2.99
  },
  {
    "variant.notation": "Q20A",
    "reported.endpoint": "protein stability index",
    "reading": 2.5
  },
  {
    "variant.notation": "I10E",
    "reported.endpoint": "protein stability index",
    "reading": 4.43
  },
  {
    "variant.notation": "F12P",
    "reported.endpoint": "protein stability index",
    "reading": 4.75
  },
  {
    "variant.notation": "M14C",
    "reported.endpoint": "protein stability index",
    "reading": 3.21
  },
  {
    "variant.notation": "I19H",
    "reported.endpoint": "protein stability index",
    "reading": 3.98
  },
  {
    "variant.notation": "S8P",
    "reported.endpoint": "protein stability index",
    "reading": 2.6
  },
  {
    "variant.notation": "I19V",
    "reported.endpoint": "protein stability index",
    "reading": 3.86
  },
  {
    "variant.notation": "D18R",
    "reported.endpoint": "protein stability index",
    "reading": 2.32
  },
  {
    "variant.notation": "L13D",
    "reported.endpoint": "protein stability index",
    "reading": 4.68
  },
  {
    "variant.notation": "E24K",
    "reported.endpoint": "protein stability index",
    "reading": 2.73
  },
  {
    "variant.notation": "Q17S",
    "reported.endpoint": "protein stability index",
    "reading": 2.69
  },
  {
    "variant.notation": "D7A",
    "reported.endpoint": "protein stability index",
    "reading": 2.48
  },
  {
    "variant.notation": "L16S",
    "reported.endpoint": "protein stability index",
    "reading": 4.26
  },
  {
    "variant.notation": "Y21V",
    "reported.endpoint": "protein stability index",
    "reading": 3.51
  },
  {
    "variant.notation": "D3G",
    "reported.endpoint": "protein stability index",
    "reading": 2.77
  },
  {
    "variant.notation": "F12R",
    "reported.endpoint": "protein stability index",
    "reading": 4.38
  },
  {
    "variant.notation": "D6F",
    "reported.endpoint": "protein stability index",
    "reading": 2.04
  },
  {
    "variant.notation": "F12D",
    "reported.endpoint": "protein stability index",
    "reading": 5.07
  },
  {
    "variant.notation": "E5N",
    "reported.endpoint": "protein stability index",
    "reading": 3.12
  },
  {
    "variant.notation": "L13Q",
    "reported.endpoint": "protein stability index",
    "reading": 4.34
  },
  {
    "variant.notation": "Y21T",
    "reported.endpoint": "protein stability index",
    "reading": 4.06
  },
  {
    "variant.notation": "K9M",
    "reported.endpoint": "protein stability index",
    "reading": 2.47
  },
  {
    "variant.notation": "Y4C",
    "reported.endpoint": "protein stability index",
    "reading": 3.27
  },
  {
    "variant.notation": "M14H",
    "reported.endpoint": "protein stability index",
    "reading": 3.96
  },
  {
    "variant.notation": "L16M",
    "reported.endpoint": "protein stability index",
    "reading": 3.55
  },
  {
    "variant.notation": "F12W",
    "reported.endpoint": "protein stability index",
    "reading": 3.18
  },
  {
    "variant.notation": "I19C",
    "reported.endpoint": "protein stability index",
    "reading": 3.96
  },
  {
    "variant.notation": "D3T",
    "reported.endpoint": "protein stability index",
    "reading": 2.48
  }
]
